Compiled literature IC50, tested on PDE9 (Homo sapiens (Human), UniProt O76083).
Sequence (O76083 whole entry): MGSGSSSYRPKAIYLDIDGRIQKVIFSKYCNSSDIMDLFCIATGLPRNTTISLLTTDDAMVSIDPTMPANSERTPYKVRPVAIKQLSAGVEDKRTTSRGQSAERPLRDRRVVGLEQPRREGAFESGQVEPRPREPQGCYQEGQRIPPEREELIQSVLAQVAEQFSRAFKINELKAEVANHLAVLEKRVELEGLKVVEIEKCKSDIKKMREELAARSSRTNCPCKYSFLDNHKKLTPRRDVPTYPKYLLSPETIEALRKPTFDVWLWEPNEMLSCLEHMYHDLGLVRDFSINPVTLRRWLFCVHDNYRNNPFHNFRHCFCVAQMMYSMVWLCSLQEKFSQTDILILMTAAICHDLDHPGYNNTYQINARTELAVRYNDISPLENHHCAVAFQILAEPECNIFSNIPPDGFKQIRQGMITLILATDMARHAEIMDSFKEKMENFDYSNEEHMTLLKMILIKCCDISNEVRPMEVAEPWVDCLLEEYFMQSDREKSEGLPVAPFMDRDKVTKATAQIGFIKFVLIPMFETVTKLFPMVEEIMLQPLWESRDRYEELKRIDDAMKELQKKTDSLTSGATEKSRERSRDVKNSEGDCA
readout: IC50

>  <molecule>
C[C@@H]1CN(Cc2ccc3nccn3n2)C[C@H]1c1nn2c(C3CCOCC3)ncc2c(=O)[nH]1 (single isomer, unassigned)

>  <assay_target>
PDE9 (Homo sapiens (Human), UniProt O76083)

>  <reported>
< 1000 nM

$$$$
>  <molecule>
O=C(CSc1nc2c(cnn2-c2ccccc2)c(=O)[nH]1)Nc1nnc(SCc2ccc(Cl)cc2)s1

>  <assay_target>
PDE9 (Homo sapiens (Human), UniProt O76083)

>  <reported>
19 nM

$$$$
>  <molecule>
CC1CN([C@H](C)c2ccccc2)CC1c1nn2c(C3CCOCC3)ncc2c(=O)[nH]1 (single isomer, unassigned; (-))

>  <assay_target>
PDE9 (Homo sapiens (Human), UniProt O76083)

>  <reported>
< 1000 nM

$$$$
>  <molecule>
Cc1cc(C)c2oc(CSc3nc4c(cnn4-c4ccccc4)c(=O)[nH]3)nc2c1

>  <assay_target>
PDE9 (Homo sapiens (Human), UniProt O76083)

>  <reported>
950 nM

$$$$
>  <molecule>
C[C@@H]1CN(Cc2ccccc2F)C[C@H]1c1nn2c(C3CCOCC3)ncc2c(=O)[nH]1 (single isomer, unassigned)

>  <assay_target>
PDE9 (Homo sapiens (Human), UniProt O76083)

>  <reported>
< 1000 nM

$$$$
>  <molecule>
Cc1ccc2nc(CSc3nc4c(cnn4C4CC4)c(=O)[nH]3)oc2c1

>  <assay_target>
PDE9 (Homo sapiens (Human), UniProt O76083)

>  <reported>
190 nM

$$$$
>  <molecule>
COCCCCN1CCN(C(=O)c2cc3c(cc2OC)[nH]c(=O)c2cnn(C4CCCC4)c23)CC1

>  <assay_target>
PDE9 (Homo sapiens (Human), UniProt O76083)

>  <reported>
18 nM

$$$$
>  <molecule>
Cc1cc2[nH]c(=O)c3cnn([C@H]4CCOC4)c3c2cc1C(=O)N1CCN(CCCC(F)(F)F)CC1

>  <assay_target>
PDE9 (Homo sapiens (Human), UniProt O76083)

>  <reported>
9 nM

$$$$
>  <molecule>
O=c1[nH]c(SCc2nc3cc(Cl)cc(Cl)c3o2)nc2c1cnn2C1CCOCC1

>  <assay_target>
PDE9 (Homo sapiens (Human), UniProt O76083)

>  <reported>
19 nM

$$$$
>  <molecule>
Cc1cc2[nH]c(=O)c3cnn(C4CCOCC4)c3c2cc1C(=O)N1CCN(C)C(c2cccnc2)C1 (centres unmarked)

>  <assay_target>
PDE9 (Homo sapiens (Human), UniProt O76083)

>  <reported>
3.9 nM

$$$$
>  <molecule>
O=c1[nH]c(Cc2ccc(-c3ccccn3)cc2)cn2c(C3CCOCC3)ncc12

>  <assay_target>
PDE9 (Homo sapiens (Human), UniProt O76083)

>  <reported>
180 nM

$$$$
>  <molecule>
CC(Sc1nc2c(cnn2C2CCOCC2)c(=O)[nH]1)C(=O)Nc1nnc(Br)s1 (centres unmarked)

>  <assay_target>
PDE9 (Homo sapiens (Human), UniProt O76083)

>  <reported>
0.2 nM

$$$$
>  <molecule>
O=c1[nH]c(SCc2nc3cc([N+](=O)[O-])ccc3o2)nc2c1cnn2C1CCOCC1

>  <assay_target>
PDE9 (Homo sapiens (Human), UniProt O76083)

>  <reported>
32 nM

$$$$
>  <molecule>
O=c1[nH]c(SCc2nc3c([N+](=O)[O-])cccc3o2)nc2c1cnn2-c1ccccc1

>  <assay_target>
PDE9 (Homo sapiens (Human), UniProt O76083)

>  <reported>
1720 nM

$$$$
>  <molecule>
Cc1cc2[nH]c(=O)c3cnn(C4CCOCC4)c3c2cc1C(=O)NCC1(N2CCOCC2)CCCCC1.Cl

>  <assay_target>
PDE9 (Homo sapiens (Human), UniProt O76083)

>  <reported>
0.4 nM

$$$$
>  <molecule>
O=c1[nH]c(SCc2nc3cc(C(F)(F)F)ccc3o2)nc2c1cnn2-c1ccccc1

>  <assay_target>
PDE9 (Homo sapiens (Human), UniProt O76083)

>  <reported>
34100 nM

$$$$
>  <molecule>
Cc1cc2[nH]c(=O)c3cnn(C4CCC(F)(F)CC4)c3c2cc1C(=O)N1CCN(CCC(F)(F)F)[C@@H](C)C1

>  <assay_target>
PDE9 (Homo sapiens (Human), UniProt O76083)

>  <reported>
1.7 nM

$$$$
>  <molecule>
O=C(CSc1nc2c(cnn2-c2ccccc2)c(=O)[nH]1)Nc1nnc(SCc2ccccc2)s1

>  <assay_target>
PDE9 (Homo sapiens (Human), UniProt O76083)

>  <reported>
14 nM

$$$$
>  <molecule>
O=c1[nH]c(SCc2nc3ccccc3o2)nc2c1cnn2-c1ccccc1

>  <assay_target>
PDE9 (Homo sapiens (Human), UniProt O76083)

>  <reported>
49 nM

$$$$
>  <molecule>
O=C(CSc1nc2c(cnn2C2CCOCC2)c(=O)[nH]1)Nc1nnc(Cl)s1

>  <assay_target>
PDE9 (Homo sapiens (Human), UniProt O76083)

>  <reported>
0.7 nM

$$$$
>  <molecule>
Cc1ccc2nc(CSc3nc4c(cnn4C(C)C)c(=O)[nH]3)oc2c1

>  <assay_target>
PDE9 (Homo sapiens (Human), UniProt O76083)

>  <reported>
4 nM

$$$$
>  <molecule>
O=C(CSc1nc2c(cnn2-c2ccccc2)c(=O)[nH]1)Nc1nnc(Br)s1

>  <assay_target>
PDE9 (Homo sapiens (Human), UniProt O76083)

>  <reported>
12 nM

$$$$
>  <molecule>
Cc1cc2[nH]c(=O)c3cnn(C4CCOCC4)c3c2cc1C(=O)N1CCC(OCC2CC2)CC1

>  <assay_target>
PDE9 (Homo sapiens (Human), UniProt O76083)

>  <reported>
5.7 nM

$$$$
>  <molecule>
Cc1ccc2nc(C(C)Sc3nc4c(cnn4C4CCSCC4)c(=O)[nH]3)oc2c1 (centres unmarked)

>  <assay_target>
PDE9 (Homo sapiens (Human), UniProt O76083)

>  <reported>
5 nM

$$$$
>  <molecule>
Cc1ccc2nc(CSc3nc4c(cnn4C4CCOCC4)c(=O)[nH]3)oc2c1

>  <assay_target>
PDE9 (Homo sapiens (Human), UniProt O76083)

>  <reported>
4 nM

$$$$
>  <molecule>
O=c1[nH]c(SCc2nc3cc(Cl)ccc3o2)nc2c1cnn2-c1ccccc1

>  <assay_target>
PDE9 (Homo sapiens (Human), UniProt O76083)

>  <reported>
190 nM

$$$$
>  <molecule>
COCC(F)(F)CN1CCN(C(=O)c2cc3c(cc2C)[nH]c(=O)c2cnn(C4CCOCC4)c23)CC1

>  <assay_target>
PDE9 (Homo sapiens (Human), UniProt O76083)

>  <reported>
8.3 nM

$$$$
>  <molecule>
COCCC1CCN(C(=O)c2cc3c(cc2C)[nH]c(=O)c2cnn([C@H]4CCOC4)c23)CC1

>  <assay_target>
PDE9 (Homo sapiens (Human), UniProt O76083)

>  <reported>
9.8 nM

$$$$
>  <molecule>
Cc1cc2[nH]c(=O)c3cnn(C4CCOCC4)c3c2cc1C(=O)N1CCN(c2ccccn2)CC1

>  <assay_target>
PDE9 (Homo sapiens (Human), UniProt O76083)

>  <reported>
2.1 nM

$$$$
>  <molecule>
Cc1cc2[nH]c(=O)c3cnn(C4CCOCC4)c3c2cc1C(=O)N1CC(N(C)CCC(F)(F)F)C1

>  <assay_target>
PDE9 (Homo sapiens (Human), UniProt O76083)

>  <reported>
8 nM

$$$$
>  <molecule>
COCCCN1CCN(C(=O)c2cc3c(cc2C)[nH]c(=O)c2cnn(C4CCC4)c23)C[C@@H]1C

>  <assay_target>
PDE9 (Homo sapiens (Human), UniProt O76083)

>  <reported>
6.8 nM

$$$$
>  <molecule>
COCCCN1CCN(C(=O)c2cc3c(cc2C)[nH]c(=O)c2cnn(C4CCCC4)c23)C[C@@H]1C

>  <assay_target>
PDE9 (Homo sapiens (Human), UniProt O76083)

>  <reported>
4.7 nM

$$$$

---

Compiled literature pIC50, tested on PDE9 (Homo sapiens (Human), UniProt O76083).
pIC50: −log10 of the molar value.
readout: pIC50

>  <molecule>
O=C(CSc1nc2c(cnn2-c2ccccc2)c(=O)[nH]1)Nc1nnc(-c2ccc(F)cc2)s1

>  <readout>
pIC50

>  <cmp>
=

>  <reported>
8.00

$$$$
>  <molecule>
COCCCCN1C[C@@H]2C[C@H]1CN2C(=O)c1cc2c(cc1C)[nH]c(=O)c1cnn(C3CCOCC3)c12

>  <readout>
pIC50

>  <cmp>
=

>  <reported>
8.08

$$$$
>  <molecule>
CC(=O)N1CCC(c2ncc3c(=O)[nH]c([C@@H]4CN(Cc5ccccc5)C[C@H]4C)nn23)CC1 (single isomer, unassigned)

>  <readout>
pIC50

>  <cmp>
>

>  <reported>
6.00

$$$$
>  <molecule>
Cc1cc2[nH]c(=O)c3cnn(C4CCOCC4)c3c2cc1C(=O)N1CCC2(CC1)COc1ccccc12

>  <readout>
pIC50

>  <cmp>
=

>  <reported>
8.23

$$$$
